Molecular target: UniProtKB Q04609
Experiment: Enzymatic assay for in vitro evaluation of PSMA inhibitors (fluorescent assay of PSMA activity, NAAG substrate, OPA detection of glutamate)
Format: biochemical
Conditions: compound at 10 μM
Protocol: Enzymatic Assay for In Vitro Evaluation of PSMA Inhibitors The inhibitory activity of all compounds was determined using a fluorescent assay of human PSMA activity. The enzyme used in the assay was purchased from R&D Systems and stored at −80° C. […] In the second step, the amount of accumulated glutamate was measured using the OPA reaction, and the fluorescence was read with a SpectraMax fluorescent plate reader using excitation at 330 nm and emission at 450 nm. […]
MEASURE: PSMA Blkg % (10 μM) (%)

[[record]]
smiles_text = "O=C(O)CC[C@H](NC(=O)N[C@@H](CCCCn1cc(CCCF)nn1)C(=O)O)C(=O)O"
readout_number = 99

[[record]]
smiles_text = "O=C(O)CC[C@@H](C(=O)O)N1C(=O)CC(=O)N([C@@H](CCCCNC(=O)OCc2ccccc2)C(=O)O)C1=O"
readout_number = 94

[[record]]
smiles_text = "O=C(O)CC[C@H](NC(=O)CN(O)C(=O)CCCCNC(=O)c1ccccc1)C(=O)O"
readout_number = 6

[[record]]
smiles_text = "O=C(O)CC[C@H](NC(=O)N[C@@H](CCCCNC(=O)c1ccc(-n2cc(CCCF)nn2)cc1)C(=O)O)C(=O)O"
readout_number = 100


###

molecular target: human PSMA (Homo sapiens (Human), UniProt Q04609); test: Enzymatic assay for in vitro evaluation of PSMA inhibitors (fluorescent assay of PSMA activity, NAAG substrate, OPA detection of glutamate); assay type: biochemical; conditions: compound at 10 μM
Sequence (Q04609 whole entry): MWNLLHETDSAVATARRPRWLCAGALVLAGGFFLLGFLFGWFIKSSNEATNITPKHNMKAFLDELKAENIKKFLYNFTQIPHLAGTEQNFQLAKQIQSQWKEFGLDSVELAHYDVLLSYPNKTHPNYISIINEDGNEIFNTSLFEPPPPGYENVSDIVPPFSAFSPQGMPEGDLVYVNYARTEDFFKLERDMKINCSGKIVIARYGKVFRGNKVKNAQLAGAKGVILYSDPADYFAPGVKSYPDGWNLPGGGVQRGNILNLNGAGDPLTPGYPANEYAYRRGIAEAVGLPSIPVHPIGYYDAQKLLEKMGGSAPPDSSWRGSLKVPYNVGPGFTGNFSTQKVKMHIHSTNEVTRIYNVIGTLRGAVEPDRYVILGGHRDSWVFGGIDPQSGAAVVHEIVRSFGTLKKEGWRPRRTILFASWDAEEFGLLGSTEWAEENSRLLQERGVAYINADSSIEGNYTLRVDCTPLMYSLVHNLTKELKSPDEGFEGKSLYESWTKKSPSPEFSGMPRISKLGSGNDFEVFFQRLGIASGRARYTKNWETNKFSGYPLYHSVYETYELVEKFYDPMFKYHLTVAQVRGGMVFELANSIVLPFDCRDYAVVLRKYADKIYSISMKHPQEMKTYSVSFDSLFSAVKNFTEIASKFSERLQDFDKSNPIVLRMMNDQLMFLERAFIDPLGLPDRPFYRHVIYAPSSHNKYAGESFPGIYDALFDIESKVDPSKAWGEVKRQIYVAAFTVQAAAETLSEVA
Everything with PSMA Blkg % (10 μM) lower than 20% is False; everything else, including exactly 20%, is True.

[[record]]
compound = "NC1C(=O)N([C@@H](CCCCNC(=O)OCc2ccccc2)C(=O)O)C(=O)N([C@@H](CCC(=O)O)C(=O)O)C1=O (stereo partly shown)"
label_class = "True"

[[record]]
compound = "O=C(O)CC[C@H](NC(=O)N[C@@H](CCCCNC(=O)c1ccc(Cl)nc1)C(=O)O)C(=O)O"
label_class = "True"

[[record]]
compound = "O=C(O)CCC(NC(=O)N[C@@H](CCC(=O)O)C(=O)O)C(=O)O (stereo partly shown)"
label_class = "True"

[[record]]
compound = "CCC1(CC)C(=O)N([C@@H](CCCCN(Cc2ccc([N+](=O)[O-])cc2)C(=O)CCCCn2cc(CCCF)nn2)C(=O)O)C(=O)N([C@@H](CCC(=O)O)C(=O)O)C1=O"
label_class = "False"

[[record]]
compound = "O=C(O)CC[C@H](NC(=O)N(O)[C@@H](CCCCNC(=O)c1ccc(F)cc1)C(=O)O)C(=O)O"
label_class = "True"

[[record]]
compound = "CC(=O)N(CCCCN1C(=O)c2ccccc2C1=O)NC(=O)N[C@@H](CCC(=O)O)C(=O)O"
label_class = "False"

[[record]]
compound = "O=C(O)CC[C@H](NC(=O)N(CCc1ccccc1)CC(=O)O)C(=O)O"
label_class = "False"


###

Catalogue of molecules with associated PSMA Blkg % (1.0 μM)
Target: human PSMA (Homo sapiens (Human))
Test: Enzymatic assay for in vitro evaluation of PSMA inhibitors (fluorescent assay of PSMA activity, NAAG substrate, OPA detection of glutamate)
Type: biochemical
Conditions: 1.0 μM
Method: Enzymatic Assay for In Vitro Evaluation of PSMA Inhibitors The inhibitory activity of all compounds was determined using a fluorescent assay of human PSMA activity. The enzyme used in the assay was purchased from R&D Systems and stored at −80° C. […] In the second step, the amount of accumulated glutamate was measured using the OPA reaction, and the fluorescence was read with a SpectraMax fluorescent plate reader using excitation at 330 nm and emission at 450 nm. […]
MEASURE: PSMA Blkg % (1.0 μM) (%)

[[record]]
molecule = "O=C(O)CC[C@H](NC(=O)N[C@@H](CCCCNC(=O)c1cc(NC(=O)Cn2cc(CCCF)nn2)cc(C(=O)NCCCC[C@H](NC(=O)N[C@@H](CCC(=O)O)C(=O)O)C(=O)O)c1)C(=O)O)C(=O)O"
unit_abbreviation = "%"
readout_number = 98

[[record]]
molecule = "O=C(O)CC[C@H](NC(=O)N[C@@H](Cc1ccc(NC(=O)N2CCN(C(=O)OCc3ccccc3)CC2)cc1)C(=O)O)C(=O)O"
unit_abbreviation = "%"
readout_number = 98

[[record]]
molecule = "O=C(O)CC[C@H](NC(=O)N[C@@H](CCCCNc1nc(-c2ccnc(Cl)c2)cs1)C(=O)O)C(=O)O"
unit_abbreviation = "%"
readout_number = 99

[[record]]
molecule = "O=C(O)CCC(CP(=O)(O)OCCC1CCN(C(=O)c2ccc(-n3cc(CCCF)nn3)cc2)CC1)C(=O)O (stereo not drawn)"
unit_abbreviation = "%"
readout_number = 15

[[record]]
molecule = "[N-]=[N+]=Nc1cc(C(=O)NCCCCCC(=O)N[C@@H](CCC(=O)O)C(=O)O)cc(C(=O)NCCCCCC(=O)N[C@@H](CCC(=O)O)C(=O)O)c1"
unit_abbreviation = "%"
readout_number = 0

[[record]]
molecule = "O=C(O)CC[C@H](NC(=O)N[C@@H](CC1CCN(C(=O)c2cc(C(=O)N3CCC(C[C@H](NC(=O)N[C@@H](CCC(=O)O)C(=O)O)C(=O)O)CC3)cc(-n3cc(CCCF)nn3)c2)CC1)C(=O)O)C(=O)O"
unit_abbreviation = "%"
readout_number = 97

